Ref: patent US11111247B2

Recorded pIC50 values for a group of molecules are listed next.
- target: UniProt Q04771
- Sequence (Q04771 147-509): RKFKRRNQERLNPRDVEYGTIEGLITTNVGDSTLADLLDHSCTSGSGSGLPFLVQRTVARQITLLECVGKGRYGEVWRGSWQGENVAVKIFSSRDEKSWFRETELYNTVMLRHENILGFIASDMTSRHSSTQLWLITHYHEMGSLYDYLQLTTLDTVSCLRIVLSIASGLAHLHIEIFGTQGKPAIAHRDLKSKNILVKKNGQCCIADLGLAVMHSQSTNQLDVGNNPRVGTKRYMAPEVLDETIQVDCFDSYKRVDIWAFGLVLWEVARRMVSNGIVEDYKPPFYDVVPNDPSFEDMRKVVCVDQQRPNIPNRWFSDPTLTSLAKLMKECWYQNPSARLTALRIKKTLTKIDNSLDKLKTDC
- assay-text: ALK2 HTRF Assay
- Type: biochemical
- setup-conditions: ALK2 100 μM IC50, 100 uM ATP
pIC50: −log10 of the molar value.
result-type: pIC50

{"columns": ["molecule", "result"],
 "data": [
  ["CN1CC2CCC(C1=O)N2c1ncc2[nH]nc(-c3cnn(-c4ccc(N(C)C)nc4)c3)c2n1 (stereo not shown)", "5.70 to 6.30"],
  ["C[C@@H]1CN(c2ccc(-c3n[nH]c4cnc(N5[C@@H]6CC[C@H]5CN(c5ccc(C#N)cc5)C6)nc34)cn2)CCN1", "6.30 to 7.00"],
  ["Cn1cc(-c2n[nH]c3cnc(N4CCc5cn[nH]c5C4)nc23)cn1", "5.70 to 6.30"],
  ["CN1CCN(c2ccc(-c3n[nH]c4cnc(N5C6CCC5C(=O)N(C)C6)nc34)cn2)CC1 (stereo not shown)", "5.70 to 6.30"]
]}

----------
- target: FGFR3 (UP) (Homo sapiens (Human), UniProt P22607)
- Sequence (P22607 23-806): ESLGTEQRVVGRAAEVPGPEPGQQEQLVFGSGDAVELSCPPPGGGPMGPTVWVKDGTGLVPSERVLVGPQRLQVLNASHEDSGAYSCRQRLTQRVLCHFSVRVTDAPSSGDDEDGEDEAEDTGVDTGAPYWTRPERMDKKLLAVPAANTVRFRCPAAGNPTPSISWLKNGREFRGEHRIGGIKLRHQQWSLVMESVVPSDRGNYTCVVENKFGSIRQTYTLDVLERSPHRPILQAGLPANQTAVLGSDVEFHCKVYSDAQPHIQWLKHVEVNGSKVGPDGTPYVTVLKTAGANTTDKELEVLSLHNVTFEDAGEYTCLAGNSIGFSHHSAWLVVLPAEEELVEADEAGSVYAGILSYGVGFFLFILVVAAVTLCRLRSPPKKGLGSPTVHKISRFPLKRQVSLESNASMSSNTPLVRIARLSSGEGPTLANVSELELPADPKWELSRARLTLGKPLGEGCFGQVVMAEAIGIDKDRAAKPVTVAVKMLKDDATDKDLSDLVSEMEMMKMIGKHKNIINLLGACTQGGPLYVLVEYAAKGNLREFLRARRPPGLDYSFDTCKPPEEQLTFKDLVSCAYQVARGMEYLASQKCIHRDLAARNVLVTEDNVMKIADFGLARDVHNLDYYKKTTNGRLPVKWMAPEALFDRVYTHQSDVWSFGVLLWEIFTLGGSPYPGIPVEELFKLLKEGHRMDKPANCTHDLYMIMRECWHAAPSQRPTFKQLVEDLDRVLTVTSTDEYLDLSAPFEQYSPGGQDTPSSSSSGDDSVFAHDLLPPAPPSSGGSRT
- assay-text: FGFR Enzymatic Assay, FGFR3 un-phosphorylated
- setup-conditions: read-out: FGFR3 (UP) IC50; un-phosphorylated enzyme, ATP near or below Km
pIC50: −log10 of the molar value.
Recorded pIC50 values for a group of compounds are listed next.

{"columns": ["compound", "pIC50"],
 "data": [
  ["CNC(=O)c1ccc(-n2cc(-c3n[nH]c4cnc(N5C6CCC5C(=O)N(C)C6)nc34)cn2)cc1F (stereo not shown) [Example 81]", "> 7.00"],
  ["Cn1cc(-c2n[nH]c3cnc(N4CCc5ncccc5C4)nc23)cn1 [Example 40]", "> 7.00"],
  ["CC(C)N1CCN(c2ncc3[nH]nc(-c4cnn(C)c4)c3n2)C(C)C1=O (stereo not shown) [Example 47]", "> 7.00"],
  ["CN1CC2CCC(C1=O)N2c1ncc2[nH]nc(-c3cnn(-c4cncc(C#N)c4)c3)c2n1 (stereo not shown) [Example 73]", "> 7.00"],
  ["CN1CC2CCC(C1=O)N2c1ncc2[nH]nc(-c3cnn(-c4cccnc4)c3)c2n1 (stereo not shown) [Example 69]", "> 7.00"],
  ["CN1CC2CCC(C1=O)N2c1ncc2[nH]nc(-c3cnn(CC(F)(F)F)c3)c2n1 (stereo not shown) [Example 67]", "> 7.00"],
  ["Cc1cc(-n2cc(-c3n[nH]c4cnc(N5C6CCC5C(=O)N(C)C6)nc34)cn2)ccc1C#N (stereo not shown) [Example 76]", "> 7.00"],
  ["CN1CCN(c2ccc(-c3n[nH]c4cnc(N5C6CCC5C(=O)N(C)C6)nc34)cn2)CC1 (stereo not shown) [Example 60]", "> 7.00"],
  ["C[C@@H]1CN(c2ccc(-c3n[nH]c4cnc(N5[C@H](C)COC[C@@H]5C)nc34)cn2)CCN1 [Example 2]", "> 7.00"],
  ["Cn1cc(-c2n[nH]c3cnc(N4CCc5cn[nH]c5C4)nc23)cn1 [Example 44]", "> 7.00"],
  ["CC(C)C(=O)N1C[C@@H](C)N(c2ncc3[nH]nc(-c4ccc(N5CCN[C@H](C)C5)nc4)c3n2)[C@@H](C)C1 [Example 5]", "< 5.70"],
  ["Cn1cc(-c2n[nH]c3cnc(N4CCc5ncsc5C4)nc23)cn1 [Example 42]", "> 7.00"],
  ["C[C@@H]1CN(c2ccc(-c3n[nH]c4cnc(N5CC6CCC5CN6C(=O)N5CCCC5)nc34)cn2)CCN1 (stereo partly shown) [Example 20]", "< 5.70"]
]}
